Test system: WS1
Experiment: Coupled enzyme assay, WS substrate profile (TLC)
Type: biochemical, Marinobacter hydrocarbonoclasticus DSM 8798
Set-up: key: no activity (−); ranging from no activity (−) to most active (+++); ranging from no activity (−) to most active (+++); most active (+++)
Settings: alcohol phytol; 12 h at 37° C.; each substrate 250 μM
result_type: WE formation (spot intensity of wax ester products on TLC), WS1, Phytol

compound	measured_result
CCCCCCCCCC(=O)O	−
CCCCCCCCCCCCCCCCCC(=O)O	++
CC/C=C\C/C=C\C/C=C\CCCCCCCC(=O)O [C18Δcis9, 12, 15]	−
CC(C)CCCC(C)CCCC(C)CCCC(C)CC(=O)O (stereo not drawn)	+
CCCCCCCCCCCCCCCCCCCC(=O)O	++

Fill in: WE formation (spot intensity of wax ester products on TLC), WS1, Phytol of CCCCCCCCCCCCCC(=O)O is ___
+

Fill in: WE formation (spot intensity of wax ester products on TLC), WS1, Phytol of CCCCCCCCCCCCCCCC(=O)O is ___
+

Fill in: WE formation (spot intensity of wax ester products on TLC), WS1, Phytol of CCCCCC/C=C\CCCCCCCC(=O)O [C16Δcis9] is ___
+++

Fill in: WE formation (spot intensity of wax ester products on TLC), WS1, Phytol of CCCCCCCCCCCC(=O)O is ___
−

====

Molecular target: WS2 (Marinobacter nauticus, UniProt A3RE51)
Sequence (A3RE51 entry or part of it): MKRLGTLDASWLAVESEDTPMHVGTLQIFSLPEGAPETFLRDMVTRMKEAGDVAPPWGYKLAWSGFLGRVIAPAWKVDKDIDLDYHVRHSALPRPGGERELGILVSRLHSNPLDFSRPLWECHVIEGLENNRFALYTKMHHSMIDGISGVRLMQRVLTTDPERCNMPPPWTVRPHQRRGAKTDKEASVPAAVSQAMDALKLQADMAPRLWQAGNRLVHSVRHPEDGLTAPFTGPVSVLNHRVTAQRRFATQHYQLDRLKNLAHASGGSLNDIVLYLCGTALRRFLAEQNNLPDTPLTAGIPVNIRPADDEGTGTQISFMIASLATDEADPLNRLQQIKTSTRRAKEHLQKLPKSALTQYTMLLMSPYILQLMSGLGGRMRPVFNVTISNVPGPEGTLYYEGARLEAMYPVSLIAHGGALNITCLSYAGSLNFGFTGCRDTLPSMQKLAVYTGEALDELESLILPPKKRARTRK
Test: Coupled enzyme assay, WS substrate profile (TLC)
Type: biochemical, Marinobacter hydrocarbonoclasticus DSM 8798
Set-up: key: no activity (−); ranging from no activity (−) to most active (+++); ranging from no activity (−) to most active (+++); most active (+++)
Settings: fatty alcohol C10; 12 h at 37° C.; each substrate 250 μM
result_type: WE formation (spot intensity of wax ester products on TLC), WS2, C10

molecule	target_under_test	measured_result
CCCCCCCCCCCCCC(=O)O [C14]	WS2 (Marinobacter nauticus, UniProt A3RE51)	++
CC/C=C\C/C=C\C/C=C\CCCCCCCC(=O)O [C18Δcis9, 12, 15]	WS2 (Marinobacter nauticus, UniProt A3RE51)	+
CCCCCCCCCCCC(=O)O [C12]	WS2 (Marinobacter nauticus, UniProt A3RE51)	+

====

Target: WS2 (Marinobacter nauticus, UniProt A3RE51)
Experiment: Kinetic WS assay, spectrophotometric (CoA release, DTNB)
Type: biochemical, Marinobacter hydrocarbonoclasticus DSM 8798
Details: hexadecanol as acyl acceptor; both substrates 1 mM
result_type: Acyl-CoA specificity of WS2

CC/C=C\C/C=C\C/C=C\CCCCCCCC(=O)SCCNC(=O)CCNC(=O)[C@H](O)C(C)(C)COP(=O)(O)OP(=O)(O)OC[C@H]1O[C@@H](n2cnc3c(N)ncnc32)[C@H](O)[C@@H]1OP(=O)(O)O readily accepted
CCCCCCCCCCCCCCCCCCCC(=O)SCCNC(=O)CCNC(=O)[C@H](O)C(C)(C)COP(=O)(O)OP(=O)(O)OC[C@H]1O[C@@H](n2cnc3c(N)ncnc32)[C@H](O)[C@@H]1OP(=O)(O)O readily accepted
CCCCCCCCCCCCCCCCCC(=O)SCCNC(=O)CCNC(=O)[C@H](O)C(C)(C)COP(=O)(O)OP(=O)(O)OC[C@H]1O[C@@H](n2cnc3c(N)ncnc32)[C@H](O)[C@@H]1OP(=O)(O)O readily accepted
